Biological target: Gamma-secretase (Homo sapiens) (UniProt Q96BI3+Q9NZ42+Q8WW43+P49768+Q92542+P49810)
Experiment: Inhibition of gamma secretase mediated amyloid beta 42 generation in human H4 cells at 10 uM by LPECL assay; values are per cent of control
Measured metric: residual activity (%)

{"Record smiles": "O=C1Nc2ccc(Cl)cc2/C1=C\\c1ccccc1F", "Unit tag": "%", "Result": 91}
{"Record smiles": "COc1cc(OC)c(C=C2C(=O)Nc3ccccc32)c(OC)c1", "Unit tag": "%", "Result": 77}

(I) COc1cc(/C=C2/C(=O)Nc3ccc(Cl)cc32)cc(OC)c1OC
(II) CCN(CC)CCNC(=O)c1c(C)[nH]c(/C=C2\C(=O)Nc3ccc(F)cc32)c1C
Of I and II , whose reported residual activity is the larger number? Your choice should be expressed through its label. I
(I: 65%, II: 26%)
